- System: 653999-131-R-J2-PDC complex spheroids, growth inhibition
- ASSAY PROCEDURE: Anticancer human tumor 653999-131-R-J2-PDC patient-derived lung adenocarcinoma cell line growth inhibition [RAS]
- TEST CONDITIONS: second compound 0.3 µM; first compound 10 µM; hits give low values
TEST READOUT: viability, T/C (%)
Number only, in %; omit the unit.

See these solved cases before continuing.
CC1(O)CCCC1n1c(=O)c(C(F)F)cc2cnc(NC3CCN(S(C)(=O)=O)CC3)nc21 (centres undefined) + CCn1c(-c2cccnc2C(C)OC)c2c3cc(ccc31)N1CCOC(CC(NC(=O)C(C(C)C)N(C)C(=O)C3(F)CCN(C(=O)C#CC(C)(C)N(C)C)CC3)C(=O)N3CCCC(N3)C(=O)OCC(C)(C)C2)C1    36.1
NC1c2ccccc2OC12CCN(c1cnc3c(N4CCCc5ncccc54)n[nH]c3n1)CC2 (centres undefined) + CCn1c(-c2cccnc2C(C)OC)c2c3cc(ccc31)N1CCOC(CC(NC(=O)C(C(C)C)N(C)C(=O)C3(F)CCN(C(=O)C#CC(C)(C)N(C)C)CC3)C(=O)N3CCCC(N3)C(=O)OCC(C)(C)C2)C1    71.7
CC(Nc1ccc2c(c1)OCCn1cc(N3C(=O)OCC3C(F)F)nc1-2)C(N)=O (centres undefined) + CCn1c(-c2cc(N3CCN(C)CC3)cnc2C(C)OC)c2c3cc(ccc31)-c1csc(n1)CC(NC(=O)C1CC1C)C(=O)N1CCCC(N1)C(=O)OCC(C)(C)C2    4.92

Task item: What does the data say about its viability, T/C? Entry: C[C@@H](NC(=O)c1ncnc(N)c1Cl)c1ncc(C(=O)Nc2cc(C(F)(F)F)c(Cl)cn2)s1 + CCn1c(-c2cccnc2C(C)OC)c2c3cc(ccc31)N1CCOC(CC(NC(=O)C(C(C)C)N(C)C(=O)C3(F)CCN(C(=O)C#CC(C)(C)N(C)C)CC3)C(=O)N3CCCC(N3)C(=O)OCC(C)(C)C2)C1
Reply: 85.9

====

- System: 653999-131-R-J2-PDC complex spheroids, growth inhibition
- ASSAY PROCEDURE: Anticancer human tumor 653999-131-R-J2-PDC cell line growth inhibition [RAS];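 note: spheroids exposed to the agents for seven days before the readout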
- TEST CONDITIONS: second compound 0.0316 µM; first compound 3.16 µM; hits give low values
TEST READOUT: viability, T/C

See these solved cases before continuing.
CC(Nc1ccc2c(c1)OCCn1cc(N3C(=O)OCC3C(F)F)nc1-2)C(N)=O (stereo unspecified) + C=CC(=O)N1CCN(c2nc(OCC3CCCN3C)nc3c(F)c(-c4nc(N)cc(C)c4C(F)(F)F)c(Cl)cc23)C(C)C1    38.5%
NC1c2ccccc2OC12CCN(c1cnc3c(N4CCCc5ncccc54)n[nH]c3n1)CC2 (stereo unspecified) + C=CC(=O)N1CCN(c2nc(OCC3CCCN3C)nc3c(F)c(-c4nc(N)cc(C)c4C(F)(F)F)c(Cl)cc23)C(C)C1    86.4%
CC1(O)CCCC1n1c(=O)c(C(F)F)cc2cnc(NC3CCN(S(C)(=O)=O)CC3)nc21 (stereo unspecified) + C=CC(=O)N1CCN(c2nc(OCC3CCCN3C)nc3c(F)c(-c4nc(N)cc(C)c4C(F)(F)F)c(Cl)cc23)C(C)C1    68.5%
CC(=O)OC12COC1CC(O)C1(C)C(=O)C(O)C3=C(C)C(OC(=O)C(O)C(NC(=O)OC(C)(C)C)c4ccccc4)CC(O)(C(OC(=O)c4ccccc4)C21)C3(C)C (stereo unspecified) + C#Cc1c(F)ccc2cc(O)cc(-c3ncc4c(N5CC6CCC(C5)N6)nc(OCC56CCCN5CC(F)C6)nc4c3F)c12    71.5%
CC1(O)CCCC1n1c(=O)c(C(F)F)cc2cnc(NC3CCN(S(C)(=O)=O)CC3)nc21 (stereo unspecified) + C#Cc1c(F)ccc2cc(O)cc(-c3ncc4c(N5CC6CCC(C5)N6)nc(OCC56CCCN5CC(F)C6)nc4c3F)c12    63.1%

Turning now to a further molecule:
Task item: What does the data say about its viability, T/C? Entry: CCC(CC)c1cc(NC2CCC(N)C2)n2nccc2n1 (stereo unspecified) + C=CC(=O)N1CCN(c2nc(OCC3CCCN3C)nc3c(F)c(-c4nc(N)cc(C)c4C(F)(F)F)c(Cl)cc23)C(C)C1
Reply: 18.2%
